Measured values drawn from patent US20080207694A1 for this set.

System: Human colon carcinoma cells HCT-116
Assay: Cytotoxic activity on culture of human colon carcinoma cells HCT-116 (Alamar Blue)
Type: cell-based
Settings: Homo sapiens, HCT-116, 72 h, HCT-116 cells, 72 hours after addition of compounds, Alamar Blue viability
Please go through the items and note down their pIC50.
Answers are plain numbers, as −log10 of the molar value.

Dear colleague, could you send me pIC50 for each of the items below? Thanks.
1. Cc1ccc(NC(=O)N2CCC(CCCC(=O)NO)CC2)c(N)c1
2. O=C(CCCC1CCN(C(=O)NCc2ccc(-c3ccsc3)cc2)CC1)NO
3. O=C(CCCC1CCN(C(=O)NCc2ccccc2F)CC1)NO

output:
[6.40, 6.32, 6.05]

Dear colleague, could you send me pIC50 for each of the items below? Thanks.
1. O=C(CCCC1CCN(C(=O)NCc2csc3ccccc23)CC1)NO
2. O=C(CCCC1CCN(C(=O)[C@@H](CO)NC(=O)c2cc3ccccc3s2)CC1)NO
3. O=C(CCCC1CCN(C(=O)Nc2cccc(-c3ccccc3)c2)CC1)NO
4. O=C(CCCC1CCN(C(=O)NCc2csc3ccc(Cl)cc23)CC1)NO
5. CC(C)Oc1ccc(NC(=O)N2CCC(CCCC(=O)NO)CC2)cc1

output:
1. 6.22
2. 6.10
3. 6.74
4. 6.68
5. 6.40

Dear colleague, could you send me pIC50 for each of the items below? Thanks.
1. O=C(CCCC1CCN(C(=O)Nc2ccccc2)CC1)NO
2. Cc1ccc2ccccc2c1C(=O)N1CCC(CCCC(=O)NO)CC1
3. O=C(CCCC1CCN(C(=O)CNC(=O)c2cc3ccccc3s2)CC1)NO
4. O=C(CCCC1CCN(C(=O)Nc2cccc3ccccc23)CC1)NO

output:
[6.15, 6.08, 6.11, 6.15]
